Tested on: human breast adenocarcinoma MDA-MB-231 cell line
Test: Cytotoxicity: cell growth inhibition in cultures, viable cells counted by trypan blue exclusion
Type: cell-based
Settings: Homo sapiens, MDA-MB-231, sodium salt in saline; final 10^−7 mol/L; day 1; three days
testReadout: inhibition at 0.1 µM
Remember to put the unit after the number in your answer.

Report inhibition at 0.1 µM on human breast adenocarcinoma MDA-MB-231 cell line for this entry: CC1=C(/C=C/C(C)=C/C=C/C(C)=C/C(=O)N[C@@H](CS(=O)(=O)O)C(=O)O)C(C)(C)CCC1 [Compound I, N-(all-trans-Retinoyl)-L-cysteic acid]
48%

Provide measured inhibition at 0.1 µM on human breast adenocarcinoma MDA-MB-231 cell line for CC1=C(/C=C/C(C)=C/C=C/C(C)=C/C(=O)N[C@@H](CS(=O)O)C(=O)O)C(C)(C)CCC1 [Compound V] please.
27.6%

Report the value of inhibition at 0.1 µM obtained on human breast adenocarcinoma MDA-MB-231 cell line for CC1=C(/C=C/C(C)=C/C=C/C(C)=C\C(=O)N[C@@H](CCS(=O)(=O)O)C(=O)O)C(C)(C)CCC1 [Compound IV, N-(13-cis-Retinoyl)-L-homocysteic acid] .
31.1%

This collection of values is drawn from patent US6642271B2.
